Source of measurements: PubChem BioAssay (NCI)

Test system: SF-268 CNS
assay_procedure: NCI-60 one-dose screen, 48 h (100 = growth as untreated, 0 = no growth, -100 = all killed)
stated_conditions: 10 µM
About 83,000 compounds went through this panel and 20% of them were active in at least one assay; those are over-represented in the sample as a whole.
Parameter: growth. Scope: all listed entries.

compound: COc1cc2cc3c(nc2cc1OC)CCN3Cc1ccc(NC(=O)Nc2ccc(F)cc2F)cc1
result_unit: %
growth: 94.9
//
compound: COc1ccc(-c2cc(/C=C/C(=O)c3cc(OC)c(OC)c(OC)c3)[nH]n2)cc1OC
result_unit: %
growth: -45.7
//
compound: COc1ccc(OC)c(/C=C/c2nnc(Nc3ccc(Cl)cc3)o2)c1
result_unit: %
growth: 76.5
//
compound: CN(C)C=Nc1cc(Cl)ccc1Cl
result_unit: %
growth: 112
//
compound: Clc1cc2c(c(CSc3nc4ccccc4n4cccc34)c1)OCOC2
result_unit: %
growth: 85.4
//
compound: c1ccc([C@H]2CN3CCSC3=N2)cc1
result_unit: %
growth: 111
//
compound: COc1cc2nc(Nc3cccc(C(=O)O)c3)nc(N)c2cc1OC
result_unit: %
growth: 95.3
//
compound: Nc1ncn(C2OC(CO)C(O)C2O)c(=O)n1 (stereo not drawn)
result_unit: %
growth: 23.9
//
compound: O=C1Nc2ccc(Cl)cc2/C1=C\c1c(-c2ccc(Cl)cc2)nc2sc(C3CC3)nn12
result_unit: %
growth: 34
//
compound: CCN(CC)CCOc1nc2ccc(OC)cc2c2c1-c1ccc(OC)cc1C2=O
result_unit: %
growth: 17.3
//
compound: CCN(CC)CCC(CNc1c(C)cnc2cc(Cl)ccc12)c1ccc(Cl)c(Cl)c1 (stereo not drawn)
result_unit: %
growth: 71.8
//
compound: COc1cc(-c2cc(/C=C/C(=O)c3ccc(F)c(F)c3)[nH]n2)cc(OC)c1OC
result_unit: %
growth: 61.7
//
compound: Cc1cc(C)c(NC(=O)c2sc3nc4c(cc3c2N)C(=O)CCC4)c(C)c1
result_unit: %
growth: 38.6
//
compound: CCCC#CCN(CC)CC
result_unit: %
growth: 111
//
compound: C(CCCC1=NCCO1)CCCC1=NCCO1
result_unit: %
growth: 104
//
compound: CCOC(=O)C(=Cc1ccc(Br)cc1)C(=O)OCC
result_unit: %
growth: -6.93
//
compound: COc1ccc2c(c1)N(CCO)C1=C(C(=O)OC1)C2c1ccccc1 (stereo not drawn)
result_unit: %
growth: 51.2
//
compound: COC(=O)C(C(C[N+](=O)[O-])c1ccccc1)=P(c1ccccc1)(c1ccccc1)c1ccccc1 (stereo not drawn)
result_unit: %
growth: 96.1
//
compound: CSC1=NCCCC1
result_unit: %
growth: 109
//
compound: Cc1occc1-c1nnc(SCC(=O)c2ccc(NC(=O)CC(C)C)cc2)o1
result_unit: %
growth: 132
//
compound: CC(=O)n1c(-c2ccc(Cl)c(Cl)c2)cn(-c2ccc(Cl)cc2)c1=O
result_unit: %
growth: -32.7
//
compound: O=C1OCC2=C1C(c1ccc(Cl)c(Cl)c1)c1cc3c(cc1N2CCO)OCCO3 (stereo not drawn)
result_unit: %
growth: 43.1
//
compound: N=c1nc(N)ncn1-c1ccccc1
result_unit: %
growth: 108
